Ref: patent US7144862B2

Test: DSC, chain melting transition of DMPC
Assay type: physicochemical
Details: DMPC/peptide 100:1 (mol/mol); width at half maximum of the transition
# Lookup of reported ΔT1/2 (° C.) keyed by entry

SUBSTANCE | ΔT1/2 (° C.)
Ac-DWLKAFYDKFFEKFKEFF-NH2 [Peptide 6F] | 0.5 °C
Ac-DWLKAFYDKVFEKFKEFF-NH2 [Peptide 5F] | 0.5 °C
Ac-DWLKAFYDKVAEKLKEAF-NH2 [Peptide 2F] | 0.5 °C
Ac-DWFKAFYDKFFEKFKEFF-NH2 [Peptide 7F] | 0.5 °C

* * *

Test: Surface pressure measurements: monolayer exclusion pressure
Format: physicochemical
Conditions: EPC monolayer; reproducibility ± 1 dyn/cm
# Lookup of reported Monolayer Exclusion Pressure(πc) keyed by entry

SUBSTANCE | DISPLAY UNIT | Monolayer Exclusion Pressure(πc)
H-DWLKAFYDKVAEKLKEAF-OH [Peptide 18A, D-W-L-K-A-F-Y-D-K-V-A-E-K-L-K-E-A-F, reference compound] | dyn/cm | 30
Ac-DWFKAFYDKFFEKFKEFF-NH2 [Peptide 7F] | dyn/cm | 45
Ac-DWLKAFYDKVAEKLKEAF-NH2 [Peptide 2F] | dyn/cm | 38
Ac-DWLKAFYDKVFEKFKEFF-NH2 [Peptide 5F] | dyn/cm | 45
